Measured DC50 accompanies every entry in the list below.
measurementTarget: HPK1 (Homo sapiens)
Construct: A HiBiT tag was introduced by CRISPR on the N terminus of HPK1 in Jurkat cells; host or cells: Jurkat cells (ATCC TIB-152), monoclonal line with CRISPR knock-in of HiBiT at the endogenous HPK1 locus
protocolSummary: HPK1 Cellular HiBit Degradation Assay
Assay type: cell-based
testParameters: HiBiT HPK1 Jurkat cells, 24 hrs; concentration at which 50% of HPK1 was remaining; read-out: DC50 Category
Protocol: HPK1 Cellular HiBit Degradation Assay A HiBiT tag was introduced by CRISPR on the N terminus of HPK1 in Jurkat cells (ATCC® TIB-152) to allow quantitation of HPK1 protein levels in a monoclonal human cell line. […] Cells were incubated for 10 min at room temperature and luminescence was read on an EnVision plate reader (Perkin Elmer, 0.1 sec per well). […] Percent HPK1 remaining per sample was calculated as follows: […]

# compound, measurementTarget, DC50
rows = [
    ("CC(C)n1cnc2cc(-c3ccc4c(c3)N([C@H]3C[C@@H](N5CCCCC5)C3)C(=O)C43CCN(C(=O)C4(C)CCN(C(=O)C5CCN(c6ccc([C@@H]7CCC(=O)NC7=O)cn6)CC5)CC4)CC3)nc(OC3CCOCC3)c21 [Example 165]", "HPK1 (Homo sapiens)", "< 100 nM"),
    ("CC(C)n1cnc2cc(-c3ccc4c(c3)N([C@H]3C[C@@H](N5CCCCC5)C3)C(=O)C43CCN(C(=O)C4CCN(C(=O)C5CCN(c6ccc(N7CCC(=O)NC7=O)cn6)CC5)CC4)CC3)nc(Nc3ccccc3F)c21 [Example 80]", "HPK1 (Homo sapiens)", "< 100 nM"),
    ("CC(C)n1cnc2cc(-c3ccc4c(c3)N([C@H]3C[C@@H](N5CCCCC5)C3)C(=O)C43CCN(C(=O)C[C@H]4CCCN(C(=O)C5CCN(c6ccc(C7CCC(=O)NC7=O)cn6)CC5)C4)CC3)nc(NC3CC3)c21 (mixture of isomers) [Example 296]", "HPK1 (Homo sapiens)", "100 to 500 nM"),
    ("CC(C)n1cnc2cc(-c3ccc4c(c3)N([C@H]3C[C@@H](N5CCCCC5)C3)C(=O)C43CCN(C(=O)C4(C)CCN(C(=O)C5CCN(c6ccc(C7CCC(=O)NC7=O)cn6)CC5)CC4)CC3)nc(Nc3ccccc3F)c21 (mixture of isomers) [Example 114]", "HPK1 (Homo sapiens)", "< 100 nM"),
]

* * *

measurementTarget: HPK1 (Homo sapiens, UniProt Q92918)
Construct: A HiBiT tag was introduced by CRISPR on the N terminus of HPK1 in Jurkat cells; host or cells: Jurkat cells (ATCC TIB-152), monoclonal line with CRISPR knock-in of HiBiT at the endogenous HPK1 locus
Sequence (Q92918 whole entry): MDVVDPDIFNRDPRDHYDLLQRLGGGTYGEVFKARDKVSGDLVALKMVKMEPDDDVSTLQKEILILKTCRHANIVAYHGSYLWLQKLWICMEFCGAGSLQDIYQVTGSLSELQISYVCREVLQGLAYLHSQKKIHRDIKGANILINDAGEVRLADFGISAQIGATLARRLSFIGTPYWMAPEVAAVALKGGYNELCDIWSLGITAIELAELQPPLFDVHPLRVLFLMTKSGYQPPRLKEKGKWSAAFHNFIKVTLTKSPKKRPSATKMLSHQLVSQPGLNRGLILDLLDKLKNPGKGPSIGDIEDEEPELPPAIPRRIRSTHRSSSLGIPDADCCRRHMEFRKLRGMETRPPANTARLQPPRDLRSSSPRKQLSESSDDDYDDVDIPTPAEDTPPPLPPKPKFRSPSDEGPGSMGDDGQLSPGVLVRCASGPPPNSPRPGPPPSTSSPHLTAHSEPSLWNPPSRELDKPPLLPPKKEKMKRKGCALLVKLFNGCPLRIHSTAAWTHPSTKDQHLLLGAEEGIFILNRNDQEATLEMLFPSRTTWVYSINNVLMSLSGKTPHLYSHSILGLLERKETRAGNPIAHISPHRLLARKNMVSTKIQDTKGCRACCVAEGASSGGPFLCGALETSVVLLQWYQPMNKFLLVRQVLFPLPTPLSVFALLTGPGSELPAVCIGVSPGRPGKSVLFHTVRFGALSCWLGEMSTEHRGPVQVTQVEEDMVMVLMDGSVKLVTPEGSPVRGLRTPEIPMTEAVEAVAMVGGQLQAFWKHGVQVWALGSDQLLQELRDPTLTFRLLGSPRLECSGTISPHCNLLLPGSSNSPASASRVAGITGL
protocolSummary: HPK1 Cellular HiBit Degradation Assay
Assay type: cell-based
testParameters: Jurkat, HiBiT HPK1 Jurkat cells, 24 hrs; maximum degradation vs DMSO vehicle control; read-out: Dmax Category

# compound, Dmax
records = [
    ("CC(C)n1cnc2cc(-c3ccc4c(c3)N([C@H]3C[C@@H](N5CCCCC5)C3)C(=O)C43CCN(C(=O)[C@H]4CN(C(=O)C5CCN(c6ccc(C7CCC(=O)NC7=O)cc6)CC5)CC4(C)C)CC3)nc(NC3CC3)c21 (mixture of isomers)", "70 to 85%"),
    ("CC(C)n1cnc2cc(-c3ccc4c(c3)N([C@H]3C[C@@H](N5CCCCC5)C3)C(=O)C43CCN(C(=O)C4CCN(C(=O)C5CCN(c6ccc(C7CCC(=O)NC7=O)cn6)CC5)CC4)CC3)nc(NC3CCOCC3)c21 (mixture of isomers)", "50 to 70%"),
    ("CC(C)n1cnc2cc(-c3ccc4c(c3)N([C@H]3C[C@@H](N5CCCCC5)C3)C(=O)C43CCN(C(=O)C45CCC(C)(C4)N(C(=O)C4CCN(c6ccc(C7CCC(=O)NC7=O)cn6)CC4)C5)CC3)nc(NC3CC3)c21 (mixture of isomers)", "50 to 70%"),
    ("CC(C)n1cnc2cc(-c3ccc4c(c3)N([C@H]3C[C@@H](N5CCCCC5)C3)C(=O)C43CCN(C(=O)[C@]4(C)CCN(C(=O)[C@H]5CC[C@H](Oc6ccc(C7CCC(=O)NC7=O)cn6)CC5)C4)CC3)nc(NC3CC3)c21 (stereo partly shown)", "> 85%"),
]
